- Test system: CMK
- Assay: CellTox Green cytotoxicity fluorescence relative to DMSO vehicle (fold of vehicle RFU); higher = more cell death (loss of membrane integrity), active = 2 or more
- Condition set: 0.1 µM; 72 h
Respond with criterion met for CellTox Green cytotoxicity fluorescence values of 1 and above, criterion not met for values below.

{"Compound": "CC1(C)CCC(c2ccc(Cl)cc2)=C(CN2CCN(c3ccc(C(=O)NS(=O)(=O)c4ccc(N[C@H](CCN5CCOCC5)CSc5ccccc5)c(S(=O)(=O)C(F)(F)F)c4)cc3)CC2)C1 [Navitoclax]", "Discrete label": "criterion met"}
{"Compound": "FC(F)(F)c1ccc(CNc2ccc(Cc3c[nH]c4ncc(Cl)cc34)cn2)cn1 [Pexidartinib]", "Discrete label": "criterion not met"}
{"Compound": "COc1nc(OCc2cccc(-c3ccccc3)c2C)ccc1CNCCNC(C)=O [PD-1/PD-L1 inhibitor 2]", "Discrete label": "criterion not met"}
